Biological target: T1, papain (UniProt P00784 134-345)
T1 sequence (looked up): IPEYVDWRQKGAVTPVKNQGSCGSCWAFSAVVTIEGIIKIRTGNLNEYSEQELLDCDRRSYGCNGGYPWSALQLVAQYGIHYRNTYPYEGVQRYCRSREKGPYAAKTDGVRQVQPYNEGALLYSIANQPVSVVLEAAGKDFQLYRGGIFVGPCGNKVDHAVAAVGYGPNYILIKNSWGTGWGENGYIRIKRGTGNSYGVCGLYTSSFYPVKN
Test: cell-based or functional assay
Numbered stars: 1 amine (or outer) side, 2 acyl side, 3 side chain; on linkers, the order of the positions; unused ones are H or OH. Square brackets hold non-standard residues; d marks the D form. Ends that are not written are not given here. * marks the point of attachment. O(CA) = ornithine chloroamidine, N=C(CCl)NCCC[C@H](N[*:1])C(=O)[*:2]; Orn(fluoroacetimidoyl) = N=C(CF)NCCC[C@H](N)C(=O)O; Moc = COC(=O)*
METRIC_NAME: IC50 values (µM), papain activity assay

- Moc-TD[Orn(fluoroacetimidoyl)]GS-OMe (SMILES COC(=O)N[C@H](C(=O)N[C@@H](CC(=O)O)C(=O)N[C@@H](CCCNC(=N)CF)C(=O)NCC(=O)N[C@@H](CO)C(=O)OC)[C@@H](C)O) [CXP5-101]: > 2000 µM
- Ac-KWH[Orn(fluoroacetimidoyl)]DFF-NH2 (SMILES CC(=O)N[C@@H](CCCCN)C(=O)N[C@@H](Cc1c[nH]c2ccccc12)C(=O)N[C@@H](Cc1c[nH]cn1)C(=O)N[C@@H](CCCNC(=N)CF)C(=O)N[C@@H](CC(=O)O)C(=O)N[C@@H](Cc1ccccc1)C(=O)N[C@@H](Cc1ccccc1)C(N)=O) [0748-09FA]: > 2000 µM
- Ac-GD[O(CA)]GS [CXP5.2-078]: 1050 µM
- Ac-YD[O(CA)]GS [CXP5.2-081]: > 2000 µM
- Ac-KFD[Orn(fluoroacetimidoyl)]DFI-NH2 (SMILES CC[C@H](C)[C@H](NC(=O)[C@H](Cc1ccccc1)NC(=O)[C@H](CC(=O)O)NC(=O)[C@H](CCCNC(=N)CF)NC(=O)[C@H](CC(=O)O)NC(=O)[C@H](Cc1ccccc1)NC(=O)[C@H](CCCCN)NC(C)=O)C(N)=O) [0743-58FA]: > 2000 µM
